# Tested on: pigweed
# ASSAY NOTES: Test B pre/postemergence pigweed
# Format: in vivo, Amaranthus retroflexus
# REPORTED CONDITIONS: Preemergence, Rate 125 g/ha; scale of 0 to 10 where 0 is no effect and 10 is complete control
READOUT TYPE: Plant response rating, Redroot pigweed
Just the number, please, no unit attached.

// known answers, use as guide
COMPOUND | TARGET OR TEST SYSTEM | READOUT TYPE | ENDPOINT VALUE
CC(C)N(C(=O)n1oc(=O)n(C(CCl)CCl)c1=O)c1ccc(F)cc1 | pigweed | Plant response rating, Redroot pigweed | 3
COCC(OC)n1c(=O)on(C(=O)N(c2ccc(F)cc2)C(C)C)c1=O (centres unmarked) | pigweed | Plant response rating, Redroot pigweed | 10
C#CCCn1c(=O)on(C(=O)N(c2ccc(F)cc2F)C(C)C)c1=O | pigweed | Plant response rating, Redroot pigweed | 8
C=CC[Si](C)(C)Cn1c(=O)on(C(=O)N(c2ccc(F)cc2)C(C)C)c1=O | pigweed | Plant response rating, Redroot pigweed | 4
CC(C)N(C(=O)n1oc(=O)n(CNC(=O)c2ccccc2)c1=O)c1ccc(F)cc1 | pigweed | Plant response rating, Redroot pigweed | 2
Cc1nc(C(C)n2c(=O)on(C(=O)N(c3ccccc3)C(C)C)c2=O)sc1C (centres unmarked) | pigweed | Plant response rating, Redroot pigweed | 0
CC(C)Cn1c(=O)on(C(=O)N(c2ccc(Cl)cc2)C(C)C)c1=O | pigweed | Plant response rating, Redroot pigweed | 0

Q: Return Plant response rating, Redroot pigweed for the following compound: CC(C)N(C(=O)n1oc(=O)n(C(C)C(=S)N(C)C)c1=O)c1ccc(F)cc1 (centres unmarked)
Result: 7

----------
# System: pigweed
# ASSAY NOTES: Test B pre/postemergence pigweed
# Assay type: in vivo, Amaranthus retroflexus
# REPORTED CONDITIONS: Preemergence, Rate 250 g/ha; scale 0 to 10, 0 is no effect, 10 is complete control
# Method: […] At the same time, these crop and weed species were also treated with postemergence applications of test chemicals formulated in the same manner. […] Treated plants and controls were maintained in a greenhouse for twelve to sixteen days, after which all species were compared to controls and visually evaluated. […]
READOUT TYPE: Redroot pigweed plant response rating
Just the number, please, no unit attached.

// known answers, use as guide
MOLECULE | READOUT TYPE | ENDPOINT VALUE
CC(C)Cn1c(=O)on(C(=O)N(c2ccc(Cl)cc2)C(C)C)c1=O [Compound 417] | Redroot pigweed plant response rating | 4
CC(C)N(C(=O)n1oc(=O)n(C(C)CCl)c1=O)c1ccc(F)cc1F (stereo not shown) [Compound 408] | Redroot pigweed plant response rating | 10
CC1CCCCC1n1c(=O)on(C(=O)N(c2ccc(F)cc2F)C(C)C)c1=O (stereo not shown) [Compound 172] | Redroot pigweed plant response rating | 8

Q: Return Redroot pigweed plant response rating for the following molecule: C=CC[Si](C)(C)Cn1c(=O)on(C(=O)N(c2ccc(F)cc2)C(C)C)c1=O [Compound 426]
Result: 8

----------
# Test system: rape
# ASSAY NOTES: Test B pre/postemergence rape
# Type: in vivo, Brassica napus
# REPORTED CONDITIONS: Preemergence, Rate 250 g/ha; scale 0 to 10, 0 is no effect, 10 is complete control
READOUT TYPE: Rape plant response rating

// known answers, use as guide
COMPOUND | TARGET OR TEST SYSTEM | ENDPOINT VALUE
CC(C)N(C(=O)n1oc(=O)n(C(C)C2CC2)c1=O)c1ccc(F)cc1 (centres unmarked) | rape | 7
CC(C)N(C(=O)n1oc(=O)n(CCCl)c1=O)c1ccc(Cl)cc1 | rape | 2
Cc1cnn(C)c1-n1c(=O)on(C(=O)N(c2ccc(F)cc2)C(C)C)c1=O | rape | 0
CC1CCCCC1n1c(=O)on(C(=O)N(c2ccc(F)cc2F)C(C)C)c1=O (centres unmarked) | rape | 0

Q: Return Rape plant response rating for the following compound: C=CC[Si](C)(C)Cn1c(=O)on(C(=O)N(c2ccc(F)cc2)C(C)C)c1=O
Result: 8

Q: Return Rape plant response rating for the following compound: Cc1ccccc1-n1c(=O)on(C(=O)N(c2ccc(Cl)cc2F)C(C)C)c1=O
Result: 0

Q: Return Rape plant response rating for the following compound: CC(C)N(C(=O)n1oc(=O)n(Cc2ccco2)c1=O)c1ccc(F)cc1
Result: 0

Q: Return Rape plant response rating for the following compound: CCC(CC)N(C(=O)n1oc(=O)n(-c2ccccc2C)c1=O)c1ccc(F)cc1
Result: 0

----------
# Tested on: soybean
# ASSAY NOTES: Test B pre/postemergence soybean
# Assay type: in vivo, Glycine max
# REPORTED CONDITIONS: Rate 125 g/ha, Postemergence; scale 0 to 10, 0 is no effect, 10 is complete control
# Method: […] At the same time, these crop and weed species were also treated with postemergence applications of test chemicals formulated in the same manner. […] Treated plants and controls were maintained in a greenhouse for twelve to sixteen days, after which all species were compared to controls and visually evaluated. […]
// Soybean plant response rating lookup, one value per entry
Just the number, please, no unit attached.

COMPOUND | Soybean plant response rating
CC(C)N(C(=O)n1oc(=O)n(C(C)C(=O)N(C)C)c1=O)c1ccc(Cl)cc1 (stereo not shown) [Compound 480] | 3
CC(C)N(C(=O)n1oc(=O)n(CC2=NOCCC2)c1=O)c1ccc(Cl)cc1 [Compound 450] | 1
CC(C)N(C(=O)n1oc(=O)n(CNC(=O)c2ccccc2)c1=O)c1ccc(F)cc1 [Compound 445] | 1

Switching to the query record.
Q: Return Soybean plant response rating for the following compound: COCC(OC)n1c(=O)on(C(=O)N(c2ccc(F)cc2)C(C)C)c1=O (stereo not shown) [Compound 446]
Result: 2

----------
# System: giant foxtail
# ASSAY NOTES: Test B pre/postemergence giant foxtail
# Type: in vivo, Setaria faberii
# REPORTED CONDITIONS: Postemergence, Rate 125 g/ha; scale of 0 to 10 where 0 is no effect and 10 is complete control
READOUT TYPE: Giant foxtail plant response rating
Just the number, please, no unit attached.

Q: Return Giant foxtail plant response rating for the following compound: CC(C)N(C(=O)n1oc(=O)n(C2CCCCC2C(F)(F)F)c1=O)c1ccc(F)cc1 (stereo not drawn)
Result: 0

Q: Return Giant foxtail plant response rating for the following compound: Cc1cnn(C)c1-n1c(=O)on(C(=O)N(c2ccc(F)cc2)C(C)C)c1=O
Result: 0

Q: Return Giant foxtail plant response rating for the following compound: C#CCn1c(=O)on(C(=O)N(c2ccc(F)cc2)C(C)C)c1=O
Result: 7

----------
// Soybean plant response rating lookup, one value per entry
# Tested on: soybean
# ASSAY NOTES: Test B pre/postemergence soybean
# Type: in vivo, Glycine max
# REPORTED CONDITIONS: Rate 500 g/ha, Postemergence; scale 0 to 10
Just the number, please, no unit attached.

COMPOUND | TARGET OR TEST SYSTEM | Soybean plant response rating
CC(C)N(C(=O)n1oc(=O)n(CCC(F)=C(F)F)c1=O)c1ccc(F)cc1 [Compound 218] | soybean | 7
Cc1nc(C)c(Cn2c(=O)on(C(=O)N(c3ccc(Cl)cc3)C(C)C)c2=O)s1 [Compound 191] | soybean | 4
CC(C)Cn1c(=O)on(C(=O)N(c2ccc(F)cc2)C(C)C)c1=O [Compound 169] | soybean | 6
COc1nc(OC)nc(N(C(=O)n2oc(=O)n(C(C)C)c2=O)C(C)C)n1 [Compound 182] | soybean | 0

Switching to the query record.
Q: Return Soybean plant response rating for the following compound: CC(C)N(C(=O)n1oc(=O)n(CC(F)(F)F)c1=O)c1ccc(F)cc1 [Compound 163]
Result: 3

----------
# Test system: blackgrass
# ASSAY NOTES: Test B pre/postemergence blackgrass
# Format: in vivo, Alopecurus myosuroides
# REPORTED CONDITIONS: Rate 62 g/ha, Postemergence; scale of 0 to 10 where 0 is no effect and 10 is complete control
READOUT TYPE: Blackgrass plant response rating
Just the number, please, no unit attached.

COMPOUND | TARGET OR TEST SYSTEM | ENDPOINT VALUE
CC(C)N(C(=O)n1oc(=O)n(C2CCCCCC2)c1=O)c1ccc(Cl)cc1 [Compound 339] | blackgrass | 0
CC(C)N(C(=O)n1oc(=O)n(C2CC2)c1=O)c1ccc(Cl)cc1 [Compound 241] | blackgrass | 3
CC(C)N(C(=O)n1oc(=O)n(Cc2cccs2)c1=O)c1ccccc1 [Compound 103] | blackgrass | 0

Q: Return Blackgrass plant response rating for the following compound: CCCCCC#CCn1c(=O)on(C(=O)N(c2ccc(F)cc2)C(C)C)c1=O [Compound 254]
Result: 0

Q: Return Blackgrass plant response rating for the following compound: CC(C)N(C(=O)n1oc(=O)n(CC2(C)COC2)c1=O)c1ccc(F)cc1 [Compound 226]
Result: 0

Source listed as patent US6737383B1.
